# System: PfAP2-I AP2 domain 3 (GST-tagged)
# ASSAY EXPLANATION: gcPBM binding intensity (ln(normalized median fluorescence intensity)); higher = stronger DNA binding
Whole data set: some 25,000 sequences, median “ln(normalized median fluorescence intensity)” near 7.9, cut for the highest 2% near 11. The sample holds the highest values, similar sequences and a random draw of the others, so the mix is not that of the screen.
MEASURED PARAMETER: gcPBM binding intensity (ln)
Form: value (number only, do not type unit).

AGGTAAAAATGGTAAGTGCATTAATGATAAAAAATG
11.1
TTTCTTTTTTTTTGAAGTACATAAAAATATAAAAAA [XGTACX_site311]
8.03
TATATTATATATATACTGCACTGTTTTACAAAATTA
10.8
TTGTGTAAATGTTAAGTGCATTTGGTAAAATATAAA [GTGCAC_site9699]
9.51
TAAATATATATATAAGTGCATTATATATATATATAA
11.2
AGACATAAGATAATTACACACAATACATCCCTATAT [CACACA_site2227]
7.76
TATATATATAAATACACACACACCGTCCGTGTTAAA [CACACA_site5623]
8.54
TCTTTTTTCATATTTTCACACATGTCTTTATATTTA [CACACA_site6025]
8.28
ATCCTTTATAAATAAGTGCATATAAAAAATAATATT [GTGCAC_site9759]
10.1

Then there is this sequence:
I would be grateful if you could share the reported gcPBM binding intensity (ln) for TATCAATATTAAAAAGTGCAAAATAAAATATAAAAT [GTGCAC_site9486] .
10.7
